System: LOX IMVI melanoma
MEASUREMENT_NOTES: NCI-60 one-dose screen, 48 h (100 = growth as untreated, 0 = no growth, -100 = all killed)
STATED_CONDITIONS: 10 µM
Protocol: Growth inhibition of the LOX IMVI human tumor cell line is measured as a screen for anti-cancer activity. Cells are grown in 96 well plates and exposed to the test compound for 48 hours. Compounds are tested at a single concentration, which is 10^-5 M for most compounds. The reported endpoint is percent growth (GI% or GIPRCNT), where numbers from 0 - 100% represent growth inhibition, and numbers from -100% - 0 represent cell death. For example, a value of 40 represents 60% growth inhibition. […]
The panel holds about 83,000 compounds, 20% with a hit somewhere; the sample as a whole holds those more often.
Would you kindly list growth for each of these molecules?
Numeric only. Scale: %

In: What reported growth corresponds to "O=C1CSc2ccccc2N1" on LOX IMVI melanoma?
Out: 88

In: What reported growth corresponds to "CCCCCC(=O)OCCC1CCCCC1" on LOX IMVI melanoma?
Out: 98.6

In: What reported growth corresponds to "NNc1ncnc2nc[nH]c12" on LOX IMVI melanoma?
Out: 30.9

In: What reported growth corresponds to "COC(=O)Cc1cc(COC(C)=O)ccc1C" on LOX IMVI melanoma?
Out: 108

In: What reported growth corresponds to "CCOc1ccncc1[N+](=O)[O-]" on LOX IMVI melanoma?
Out: 99.6

In: What reported growth corresponds to "C=CCS(C)(=O)=O" on LOX IMVI melanoma?
Out: 103

In: What reported growth corresponds to "COc1cc(N)c2ncccc2c1Cl" on LOX IMVI melanoma?
Out: 104

In: What reported growth corresponds to "O=C1C=C[C@H](O)[C@@]2(CO)O[C@@H]12" on LOX IMVI melanoma?
Out: 66.7

In: What reported growth corresponds to "CC(C)N(C(=O)c1ccccc1)C(C)C" on LOX IMVI melanoma?
Out: 104

In: What reported growth corresponds to "Cc1cc(NC(=O)c2ccccc2)c(Cl)cc1N" on LOX IMVI melanoma?
Out: 97.6

In: What reported growth corresponds to CC(=O)OCC1OC(n2cnc3c(=S)nc(N)[nH]c32)C(OC(C)=O)C1OC(C)=O (stereo unspecified) on LOX IMVI melanoma?
Out: 19.7

In: What reported growth corresponds to "CCCCCC/C=C\CCCCCCCCCc1cc(O)cc(OC)c1O" on LOX IMVI melanoma?
Out: -86.3

In: What reported growth corresponds to CC(=O)C1C(=O)C(=O)N(c2ccc(Cl)c(Cl)c2)C1=O (stereo unspecified) on LOX IMVI melanoma?
Out: 94.4

In: What reported growth corresponds to "O=C(O)c1cccc(-n2ncc(Cl)c(Cl)c2=O)c1" on LOX IMVI melanoma?
Out: 92.2

In: What reported growth corresponds to "Nc1ncc([N+](=O)[O-])cn1" on LOX IMVI melanoma?
Out: 99.7

In: What reported growth corresponds to Cc1ccccc1CC(N)C(=O)O (stereo unspecified) on LOX IMVI melanoma?
Out: 106

In: What reported growth corresponds to "CC(=O)NNC(=S)N/C=C/c1c(C)ccc([N+](=O)[O-])c1[N+](=O)[O-]" on LOX IMVI melanoma?
Out: 96

In: What reported growth corresponds to "C=CCN1CCCC1=O" on LOX IMVI melanoma?
Out: 108

In: What reported growth corresponds to "C(=C\c1ccncc1)/c1ccncc1" on LOX IMVI melanoma?
Out: 94.2

In: What reported growth corresponds to "CCOc1ccc(NC(=S)N2CCC(CCCC3CCN(C(=S)Nc4ccc(OCC)cc4)CC3)CC2)cc1" on LOX IMVI melanoma?
Out: 95.5

In: What reported growth corresponds to "CCCCCCCCCCCCCCCCOc1ccccc1NC(=O)CC(C)=O" on LOX IMVI melanoma?
Out: 107

In: What reported growth corresponds to "Cc1cc2c(C(C)C)c(O)c(O)c(C=Nc3ccccc3[N+](=O)[O-])c2c(O)c1-c1c(C)cc2c(C(C)C)c(O)c(O)c(C=Nc3ccccc3[N+](=O)[O-])c2c1O" on LOX IMVI melanoma?
Out: 81.3

In: What reported growth corresponds to "CC(C)c1ncc([N+](=O)[O-])n1C" on LOX IMVI melanoma?
Out: 108

In: What reported growth corresponds to "O=[n+]1ccn([O-])c2ccccc21" on LOX IMVI melanoma?
Out: 97.4

In: What reported growth corresponds to "CCOC(=O)/C(C#N)=C\c1c[nH]c2ccccc12" on LOX IMVI melanoma?
Out: 93.2

In: What reported growth corresponds to Nc1ccn(C2CC(N)C(CO)O2)c(=O)n1 (stereo unspecified) on LOX IMVI melanoma?
Out: 75.4

---

Test system: COLO 205 colon
MEASUREMENT_NOTES: NCI-60 one-dose screen, 48 h
STATED_CONDITIONS: 10 µM unless noted
The panel holds about 83,000 compounds, 20% with a hit somewhere; the sample as a whole holds those more often. Active and inactive are the calls of the source. How the source made its calls: active means growth percent below 10; inactive means the rest.
Outcome (select one): active, inactive

In: Recorded call for COC1CC(OC(=O)c2ccc([N+](=O)[O-])cc2)C(COC(=O)c2ccc([N+](=O)[O-])cc2)O1 (stereo not drawn) ?
Out: inactive

In: Recorded call for "CC(CCC#N)(CCC#N)C(=O)c1ccccc1" ?
Out: inactive

In: Recorded call for CCCC(OC(C)=O)c1ccc2c(c1)OCO2 (stereo not drawn) ?
Out: inactive

In: Recorded call for "COC(=O)c1ccc([N+](=O)[O-])c(C)c1" ?
Out: inactive

In: Recorded call for "CC(=O)NCNC(C)=O" ?
Out: inactive

In: Recorded call for "CCC(=O)Oc1ccc2ccccc2c1" ?
Out: inactive

In: Recorded call for "CN(C(=S)S(=O)(=O)C12CC3CC(CC(C3)C1)C2)c1ccccc1" ?
Out: inactive

In: Recorded call for "CC(=O)N(CCCCCCN(C(C)=O)C(C)=O)C(C)=O" ?
Out: inactive

In: Recorded call for "CN1CCN(C(=S)S)CC1" ?
Out: inactive

In: Recorded call for "CCCCCC(=O)OCCC1CCCCC1" ?
Out: inactive

In: Recorded call for O=C(O)C1CSC(c2ccccc2)N1 (stereo not drawn) ?
Out: inactive

In: Recorded call for "C1Cc2onc(-c3noc4c3CCC4)c2C1" ?
Out: inactive

In: Recorded call for "C1C[S+]2CC[S+]1CC2" ?
Out: inactive

In: Recorded call for "Cc1cc(CC(=O)NCCO)n(CCO)c(=O)c1" ?
Out: inactive

In: Recorded call for "CCOC(C=O)OCC" ?
Out: inactive

In: Recorded call for "O=C(CCl)Oc1ccc([N+](=O)[O-])cc1" ?
Out: inactive

In: Recorded call for NCC(O)C(O)C(O)C(O)CO (stereo not drawn) ?
Out: inactive

In: Recorded call for C=CCC(OC(C)=O)c1ccc(OC)c(OC)c1 (stereo not drawn) ?
Out: inactive

In: Recorded call for "CC(=O)[C@@]1(O)CC[C@H]2[C@@H]3CC[C@@H]4CC(=O)CC[C@]4(C)[C@H]3[C@@H](O)C[C@@]21C" ?
Out: inactive

In: Recorded call for "NCCCN1CCCC1=O" ?
Out: inactive

In: Recorded call for "NS(=O)(=O)c1cc(=O)[nH]c(=O)[nH]1" ?
Out: inactive

In: Recorded call for "CC(=O)CSc1ncnc2nc[nH]c12" ?
Out: inactive

In: Recorded call for C#CC(O)c1ccccc1 (stereo not drawn) ?
Out: inactive

In: Recorded call for "CN(C)c1ccc2c(N(C)C)cc(N(C)C)nc2c1" ?
Out: inactive

In: Recorded call for "Nc1ccc2ccccc2c1-c1c(N)ccc2ccccc12" ?
Out: active

In: Recorded call for "N#C/C(=C\c1ccc(C#N)cc1)C(=O)c1ccccc1" ?
Out: inactive

In: Recorded call for O=S(Cc1ccccc1)/C(=C/NC(=S)Nc1cc(Cl)ccc1Cl)c1ccccc1 (stereo not drawn) ?
Out: inactive

In: Recorded call for "Nc1c(O)c(S(=O)(=O)O)c(O)c2c1C(=O)c1ccccc1C2=O" ?
Out: active

---

Would you kindly list growth for each of these compounds?
System: SNB-19 CNS
MEASUREMENT_NOTES: NCI-60 one-dose screen, 48 h (100 = growth as untreated, 0 = no growth, -100 = all killed)
STATED_CONDITIONS: 10 µM unless noted
Compounds without any hit were thinned out: in the full panel of roughly 83,000, 20% have a hit. Calls of active or inactive are those of the source. The calls were made as follows: active = growth percent below 10; inactive = the rest.

In: What reported growth corresponds to "Cc1cc(Cl)cc(Cc2cc(Cl)cc(C)c2O)c1O" on SNB-19 CNS?
Out: 17.3% (inactive)

In: What reported growth corresponds to C=C1CC2(OC1=O)C(=O)N(C)c1ccc(I)cc12 (stereo not drawn) on SNB-19 CNS?
Out: 64% (inactive)

In: What reported growth corresponds to "N#C/C(=C\c1ccc2c(c1)OCO2)c1ccccc1" on SNB-19 CNS?
Out: 86.4% (inactive)

In: What reported growth corresponds to "CC(=O)Oc1c(Cl)cccc1-c1ccccc1" on SNB-19 CNS?
Out: 98.9% (inactive)

In: What reported growth corresponds to "COc1ccc(-c2csc(NC(=O)Nc3nc(-c4ccc(OC)cc4)cs3)n2)cc1" on SNB-19 CNS?
Out: 96.6% (inactive)

In: What reported growth corresponds to "C/C(=N\O)c1ccccn1" on SNB-19 CNS?
Out: 95.2% (inactive)

In: What reported growth corresponds to O=C1NC(=O)C(c2ccccc2)O1 (stereo not drawn) on SNB-19 CNS?
Out: 109% (inactive)

In: What reported growth corresponds to CCC12OC(COc3ccccc3)CN1CCN2c1ccccc1 (stereo not drawn) on SNB-19 CNS?
Out: 96.9% [100 µM] (inactive)

In: What reported growth corresponds to "C(=C\c1ccncc1)/c1ccncc1" on SNB-19 CNS?
Out: 94.5% (inactive)

In: What reported growth corresponds to "Cn1c(=O)c2[nH]c(CCCCC(=O)O)nc2n(C)c1=O" on SNB-19 CNS?
Out: 114% (inactive)

In: What reported growth corresponds to "NNc1ncccn1" on SNB-19 CNS?
Out: 111% (inactive)

In: What reported growth corresponds to "Cc1ccc(/C=N/NC(N)=S)s1" on SNB-19 CNS?
Out: 103% (inactive)

In: What reported growth corresponds to CC1CCC(C(C)(C)[N+](C)(C)C)CC1 (stereo not drawn) on SNB-19 CNS?
Out: 101% (inactive)

In: What reported growth corresponds to "COc1cccc(C(=O)O)c1OC" on SNB-19 CNS?
Out: 106% (inactive)

In: What reported growth corresponds to "COC(=O)c1ccc([N+](=O)[O-])c(C)c1" on SNB-19 CNS?
Out: 119% (inactive)

In: What reported growth corresponds to "O=C1C=Cc2ccccc2/C1=C/c1[nH]c(=O)[nH]c1O" on SNB-19 CNS?
Out: 34.1% (inactive)

In: What reported growth corresponds to NC(=S)c1c(N)n(C2OC(CO)C(O)C2O)c2ncnc(N)c12 (stereo not drawn) on SNB-19 CNS?
Out: 14.9% (inactive)

In: What reported growth corresponds to "O=C(O)CSCC(=O)Nc1cc(C(F)(F)F)ccc1Cl" on SNB-19 CNS?
Out: 106% (inactive)

In: What reported growth corresponds to CC(=O)OCC1OC(n2cnc3c(=S)nc(N)[nH]c32)C(OC(C)=O)C1OC(C)=O (stereo not drawn) on SNB-19 CNS?
Out: 99.9% (inactive)

In: What reported growth corresponds to "Cc1ccc(C)c2c1CCC2=O" on SNB-19 CNS?
Out: 93% (inactive)

In: What reported growth corresponds to "CCOC(OCC)C(=O)c1ccccc1" on SNB-19 CNS?
Out: 103% (inactive)

In: What reported growth corresponds to "S=C=Nc1ccc2ccccc2c1" on SNB-19 CNS?
Out: 101% (inactive)

In: What reported growth corresponds to "Cc1cc(C(=O)NN)c(C#N)c(=O)[nH]1" on SNB-19 CNS?
Out: 95.3% (inactive)

In: What reported growth corresponds to "O=C1NC(=O)/C(=C\c2ccncc2)N1" on SNB-19 CNS?
Out: 101% (inactive)

In: What reported growth corresponds to "CCN(CC)CCN1CNC(=S)NC1" on SNB-19 CNS?
Out: 104% (inactive)

In: What reported growth corresponds to "NC(=S)N/N=C/c1ccc(OC(=O)COc2ccc(Cl)cc2)cn1" on SNB-19 CNS?
Out: 72.9% (inactive)

In: What reported growth corresponds to "O=S(=O)(O)c1cccnc1" on SNB-19 CNS?
Out: 96% (inactive)

In: What reported growth corresponds to "CCOC(=O)C(COS(C)(=O)=O)(COS(C)(=O)=O)C(=O)OCC" on SNB-19 CNS?
Out: 106% (inactive)

Sourced from PubChem BioAssay (NCI)
